Biological target: hB2 receptor (Homo sapiens, UniProt P30411)
Construct: host or cells: CHO-K1
Sequence (P30411 whole entry): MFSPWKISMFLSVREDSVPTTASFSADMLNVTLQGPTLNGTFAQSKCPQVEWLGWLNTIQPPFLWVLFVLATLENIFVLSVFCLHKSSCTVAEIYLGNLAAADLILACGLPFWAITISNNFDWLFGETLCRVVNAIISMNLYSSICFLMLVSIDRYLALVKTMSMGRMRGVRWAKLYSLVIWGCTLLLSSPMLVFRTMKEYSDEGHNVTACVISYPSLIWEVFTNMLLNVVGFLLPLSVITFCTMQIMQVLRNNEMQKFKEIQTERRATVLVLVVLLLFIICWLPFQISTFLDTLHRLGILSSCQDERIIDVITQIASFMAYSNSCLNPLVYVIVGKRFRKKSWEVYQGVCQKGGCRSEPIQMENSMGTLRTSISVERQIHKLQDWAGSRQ
Assay: In vitro Assay of hB2 Receptor Function using Calcium Flux
Format: cell-based
Conditions: recombinant CHO cells, antagonist IC50 against agonist at EC80
# strict inequality: IC50 < 20 nM yields rule met, everything else yields rule not met

>  <MOLECULE>
Cc1cc(S(=O)(=O)N2C=CNC(=O)[C@H]2CC(=O)N2CCC3(CCN(C4CC4)C3)C2)c(C)cc1Cl (stereo partly drawn)

>  <QUALITATIVE LABEL>
rule met

$$$$
>  <MOLECULE>
Cc1ccc(S(=O)(=O)N2C=CNC(=O)[C@H]2CC(=O)NC2CCC(N3CCCC3)CC2(C)C)cc1 (mixture of isomers)

>  <QUALITATIVE LABEL>
rule met

$$$$
>  <MOLECULE>
COCCN1CC[C@@H](NC(=O)C[C@@H]2C(=O)NC=CN2S(=O)(=O)c2ccc(C)cc2)C(C)(C)C1

>  <QUALITATIVE LABEL>
rule met

$$$$

Enquiry: A record lists Cc1ccc(S(=O)(=O)N2C=CNC(=O)[C@H]2CC(=O)NC2CCN(c3ncccn3)CC2)cc1 . Is its IC50 below 20 nM?
Return: rule not met

Enquiry: A record lists Cc1ccc(S(=O)(=O)N2C=CNC(=O)[C@H]2CC(=O)NC2CCC(NC3CC3)CC2(C)C)cc1 (mixture of isomers) . Is its IC50 below 20 nM?
Return: rule met

Enquiry: A record lists COc1ccc(C2CN(C(=O)C[C@@H]3C(=O)NC=CN3S(=O)(=O)c3ccc(C)cc3)CCS2)cc1 (stereo partly drawn) . Is its IC50 below 20 nM?
Return: rule not met

Enquiry: A record lists Cc1ccc(S(=O)(=O)N2C=CNC(=O)[C@H]2CC(=O)NC2CCN(c3ccccc3)CC2)cc1 . Is its IC50 below 20 nM?
Return: rule not met

Enquiry: A record lists Cc1ccc(S(=O)(=O)N2C=CNC(=O)[C@H]2CC(=O)NC2CCC3(CC2(C)C)OCCO3)cc1 (mixture of isomers) . Is its IC50 below 20 nM?
Return: rule met

Enquiry: A record lists Cc1ccc(S(=O)(=O)N2C=CNC(=O)[C@H]2CC(=O)N2CCCC2c2cc3ccccc3[nH]2)cc1 (stereo partly drawn) . Is its IC50 below 20 nM?
Return: rule not met

Enquiry: A record lists Cc1ccc(S(=O)(=O)N2C=CNC(=O)[C@H]2CC(=O)N[C@H]2CC[C@@H](NC(C)C)CC2)cc1 . Is its IC50 below 20 nM?
Return: rule not met

Enquiry: A record lists CO[C@H]1CC[C@H](NC(=O)C[C@@H]2C(=O)NC=CN2S(=O)(=O)c2ccc(C)cc2)CC1 . Is its IC50 below 20 nM?
Return: rule not met

Enquiry: A record lists Cc1ccc(S(=O)(=O)N2C=CNC(=O)[C@H]2CC(=O)N2CCC(NC(=O)c3ccccc3)CC2)cc1 . Is its IC50 below 20 nM?
Return: rule not met

Enquiry: A record lists Cc1ccc(S(=O)(=O)N2C=CNC(=O)[C@H]2CC(=O)N[C@@H]2CCCC[C@H]2C(C)(C)O)cc1 (mixture of isomers) . Is its IC50 below 20 nM?
Return: rule not met

Enquiry: A record lists Cc1ccc(S(=O)(=O)N2C=CNC(=O)[C@H]2CC(=O)NC2CCC(N3CCCC(F)C3)CC2(C)C)cc1 (stereo partly drawn) . Is its IC50 below 20 nM?
Return: rule met

====

Target: hB2 receptor (Homo sapiens)
Experiment: In vitro Assay of hB2 Receptor Function using Calcium Flux
Conditions: recombinant CHO cells, antagonist IC50 against agonist at EC80
Entries annotated with measured pIC50
// pIC50: -log10(molar conc.)

See these solved cases before continuing.
>  <COMPOUND>
Cc1ccc(C2CCN(C(=O)C[C@@H]3C(=O)NC=CN3S(=O)(=O)c3ccc(C)cc3)CC2)cc1

>  <RECORDED VALUE>
5.80

$$$$
>  <COMPOUND>
Cc1cc(S(=O)(=O)N2C=CNC(=O)[C@H]2CC(=O)N2CCC(N3CCCCC3)CC2)c(C)cc1Cl

>  <RECORDED VALUE>
6.57

$$$$
>  <COMPOUND>
Cc1ccc(S(=O)(=O)N2C=CNC(=O)[C@H]2CC(=O)NC2CCN(Cc3ccncc3)CC2(C)C)cc1 (mixture of isomers)

>  <RECORDED VALUE>
8.92

$$$$

Now consider a different compound.
Known value: hB2 receptor (Homo sapiens) pIC50 of the compound Cc1ccc(S(=O)(=O)N2C=CNC(=O)[C@H]2CC(=O)N2CCCC2c2ccc(Cl)cc2)cc1 (stereo partly shown) equals 6.00
